The values you see were collected from the supplement of paper PMC9233669.

system: biotinyl-Trp-oxazolone; test: self-aminoacylation, catalytic enhancement (BWO) (fold over background); higher = more active; k-Seq, kA / k0A0; sequences stand for … in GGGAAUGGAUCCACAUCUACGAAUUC…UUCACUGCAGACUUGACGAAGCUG
Fewer inactive variants are shown than the library holds.
Assign true whenever self-aminoacylation does not fall below 1; assign false whenever it does.

> print(dat)
                               sequencechain  classlabel
 1  CUACUUUAUACAAUCGGUCUG [Fam1A.1 aminoacylation ribozyme variant]       false
 2  AUUACUCUGCUCAUCGAGUGA [Fam2.1 aminoacylation ribozyme variant]        true
 3  AUUACCCUGGUCAUCUCGUGA [Fam2.1 aminoacylation ribozyme variant]        true
 4  CCACACAUCAAGCAAUCGUUC [Fam1B.1 aminoacylation ribozyme variant]       false
 5  AAGUUUGCUAAACGUCGCAAG [Fam3.1 aminoacylation ribozyme variant]       false
 6  CCACCCUUCAAGCAAUCGCUC [Fam1B.1 aminoacylation ribozyme variant]        true
 7  CUACUUCAAACAUUCGGUCUU [Fam1A.1 aminoacylation ribozyme variant]       false
 8  AUUCACCUAGGUGAUCUGGUG [Fam2.2 aminoacylation ribozyme variant]        true
 9  AUUACCCUGGGCAUCGCGUGA [Fam2.1 aminoacylation ribozyme variant]        true
10  CCACACUGCAAGCAAUCAGUC [Fam1B.1 aminoacylation ribozyme variant]       false
11  GAACUUCAAACAAUCGGUCUG [Fam1A.1 aminoacylation ribozyme variant]        true
12  CUACCUCAAACAAUUGGUCUG [Fam1A.1 aminoacylation ribozyme variant]       false
13  AUUACCGUGGUCAUCGAGCGA [Fam2.1 aminoacylation ribozyme variant]        true
14  CUACAGCAAACAAUCGGUCUG [Fam1A.1 aminoacylation ribozyme variant]       false
15  AUUCCCCUAGGUCAUGGGGUG [Fam2.2 aminoacylation ribozyme variant]        true
16  CCACACUUCAAGGUAUCGGUC [Fam1B.1 aminoacylation ribozyme variant]        true
17  AUGUUUGCUAAUAGUCGCAGG [Fam3.1 aminoacylation ribozyme variant]        true
18  CUACUGCAAACUAUCGGUCUG [Fam1A.1 aminoacylation ribozyme variant]        true
